experimental_protocol: Evaluation of thermal properties: sublimation temperature under vacuum by thermogravimetry/differential thermal analyzer TA7000
Format: physicochemical
experimental_conditions: temperature at which the rate of weight loss under vacuum (2 Pa) reached 5%
Measured Sublimation temperature by item

Some solved entries appear below for comparison.
# compound, Sublimation temperature
measured = [
    ("CC(C)(C)c1cc2ccc3cc4c(c5ccc(c1)c2c35)-c1ccc(-c2ccc(-c3ccc(-c5ccc6c(c5)C(C)(C)c5cc7ccc8cc(C(C)(C)C)cc9ccc(c5-6)c7c89)cc3)cc2)cc1C4(C)C [Compound A]", "470 °C"),
    ("CC(C)(C)c1cc2ccc3cc4c(c5ccc(c1)c2c35)-c1ccc(-c2cc(-c3ccc5c(c3)C(C)(C)c3cc6ccc7cc(C(C)(C)C)cc8ccc(c3-5)c6c78)ncn2)cc1C4(C)C [Compound (1)]", "385 °C"),
    ("CC(C)(C)c1cc2ccc3cc4c(c5ccc(c1)c2c35)-c1ccc(-c2ncnc(-c3ccc5c(c3)C(C)(C)c3cc6ccc7cc(C(C)(C)C)cc8ccc(c3-5)c6c78)n2)cc1C4(C)C [Compound (5)]", "315 °C"),
]

Consider the additional compound presented here.
Request the reported Sublimation temperature associated with CC(C)(C)c1cc2ccc3cc4c(c5ccc(c1)c2c35)-c1ccc(-c2cccc(-c3ccc5c(c3)C(C)(C)c3cc6ccc7cc(C(C)(C)C)cc8ccc(c3-5)c6c78)n2)cc1C4(C)C [(10)]
205 °C

* * *

experimental_protocol: Evaluation of thermal properties: weight-loss initiation temperature by thermogravimetry/differential thermal analyzer STA7200
Format: physicochemical
experimental_conditions: under atmospheric pressure
measurement_type: Weight-loss initiation temperature (°C)
A number alone suffices; assume °C.

Some solved entries appear below for comparison.
# smiles_text, quantity_unit, Weight-loss initiation temperature
measured = [
    ("CC(C)(C)c1cc2ccc3cc4c(c5ccc(c1)c2c35)-c1ccc(-c2ncnc(-c3ccc5c(c3)C(C)(C)c3cc6ccc7cc(C(C)(C)C)cc8ccc(c3-5)c6c78)n2)cc1C4(C)C", "°C", 385),
    ("CC(C)(C)c1cc2ccc3cc4c(c5ccc(c1)c2c35)-c1ccc(-c2cc(-c3ccc5c(c3)C(C)(C)c3cc6ccc7cc(C(C)(C)C)cc8ccc(c3-5)c6c78)ncn2)cc1C4(C)C", "°C", 450),
]

Request the reported Weight-loss initiation temperature associated with CC(C)(C)c1cc2ccc3cc4c(c5ccc(c1)c2c35)-c1ccc(-c2cccc(-c3ccc5c(c3)C(C)(C)c3cc6ccc7cc(C(C)(C)C)cc8ccc(c3-5)c6c78)n2)cc1C4(C)C
260

Request the reported Weight-loss initiation temperature associated with CC(C)(C)c1cc2ccc3cc4c(c5ccc(c1)c2c35)-c1ccc(-c2ccc(-c3ccc(-c5ccc6c(c5)C(C)(C)c5cc7ccc8cc(C(C)(C)C)cc9ccc(c5-6)c7c89)cc3)cc2)cc1C4(C)C
550
